microsomal CLint at 2 μM by entry:
# Assay procedure: Human Liver Microsome Stability
# Format: in vitro ADME
# Experimental context: human liver microsomes 0.5 mg/mL, 37° C., 60 min, read-out: in vitro CLint (microsomal)

In the examples that follow, each entry is paired with its recorded microsomal CLint at 2 μM.
>>> print(df.to_string())
                                   compound             endpoint_name      value_reported
0  C[C@@H]1COc2c(Cl)cc(-n3ccc4cc(F)ccc43)cc2CN1Cc1cnc(=O)[nH]c1  microsomal CLint at 2 μM  20 to 50 µL/min/mg
1  Fc1ccc2c(ccn2-c2cc(Cl)c3c(c2)CN(Cc2ccnc(C4COC4)c2)CCO3)c1  microsomal CLint at 2 μM     > 100 µL/min/mg
2  O=C1CC(CN2CCOc3c(Cl)cc(-n4ccc5cc(F)ccc54)cc3C2)CCN1 (stereo not shown)  microsomal CLint at 2 μM  20 to 50 µL/min/mg
3  Cc1c(CN2CCOc3c(Cl)cc(-n4ccc5cc(F)ccc54)cc3C2)cnn1C  microsomal CLint at 2 μM     > 100 µL/min/mg

// next item, microsomal CLint at 2 μM requested
# microsomal CLint at 2 μM (compound: C[C@@H]1COc2c(Cl)cc(-n3ccc4cc(F)ccc43)cc2CN1Cc1cnc(N)nc1 ) is > 100 µL/min/mg
